Test: yeast display, Sf9 membrane polyspecificity reagent, FACS + sequencing; frameworks hold sequencing errors
quantity: polyreactivity (PSR sort gate)

QVQLVESGGGLVQAGGSLRLSCAASGFILIQYAMGWYRQAPGKERELVAAITWSDTSTNYADSVKGRFTISRDNAKNTVYLQMNSLKPEDTAVYYCNADLYGAQDRRLDYYAEGYWGQGTQVTVSS : low polyreactivity
QVQLVESGGGLVQAVGSLRLSCAASGLTFYSNAMGWYRQAPGKERELVATISQDGGRTYYADSVKGRFTISRDNAKNTVYLQMNSLKPEDTAVYYCAKDLYHTVGRYDYWGQGTQVTVSS : low polyreactivity
QVHLVESGGGLVQARGSLRLSCAASGITFRYYTMGLYRQAPVKERELVAVISWSGGSTYYADSVKGRFTISRDNAKNTVYFQMNSLKPEDTAVYYCAAVRRISRYDYWGQGTQVTVSS : high polyreactivity
QVQLVESGGGLVQAGGSLRLSCAASGSNIGLNAMGWSRQAPGKEREWVAAITRISGRTRYADSVKRRFTISRDNAKNTVSLQMNSLKPEDTAVYYCDARFQSTNGHKYYYWGQGTQVTVSS : high polyreactivity
QVQLVESGGGLVQAGGSLRLSFAASGFTFTLYAMGLYRQAPGKEREFVAAITARGGSTYYADSVKGRFTISRDNAKNTVYLQMNSLKPEDTAVYYCNKEYGSRRYPYRYNYWGQGTQVTVSS : high polyreactivity

In one line, give reported polyreactivity (PSR sort gate) of the entry `QVQLVESGGGLVQAGGSLRLSCAASGSTFSYNAMGWYRQAPGKERELVAAISRGDVSTYYADSVKGRFTISRDNAKNTVYLQMNSLKPEDTAVYYCAAYWYGSQYKWRYDYWGQGTQVTVSS` .
low polyreactivity

Let me know recorded polyreactivity (PSR sort gate) for `QVQLQESRGGLVQAGGSLCLSCAASGTIFIDGDMGWYRQAPGKEREFVAAIKPGGSAYYADSVKGRLPLAAITHTVYLQMNSLKPEDTAVYYCAAKLFDVYGYYYWGQGTQVTLSS` , thanks.
low polyreactivity

Identify measured polyreactivity (PSR sort gate) associated with `QVQLVESGGGLVQAGGSLRLSCAASGSTFGINAMGWSRQAPGKERELVAAINSGTRTYYADSVKGRFTISRDNAKNNVYLQMNSLKPEDTAVYYCAARGVVGASGYYYWGQGTQVTVSS`
high polyreactivity

Return the recorded polyreactivity (PSR sort gate) value; entry: `QVQLVESGGGLVQAGGSLRLSCAASGRISIIYAMGWYRQAPGKERELVARISGSGGSTNYADSVKGRFTISRDNAKNTVYLQMISLKPEDTAVYYCAAVPWRIHKYYYWGQGTQVTVSS`
high polyreactivity

Complete the entry with polyreactivity (PSR sort gate) for `QVQLVESRGGLVQAGGSLRLSCAASGRIFDVYAMVWYRQAPGKERELVAAITWSGTSTYYADSVKGRFTISRDNAKNTVYVQMNSLKPEDTAVYYCAAEVAYTDTEYFWYYYWGQGTQVTVSS`
high polyreactivity

Look up and state reported polyreactivity (PSR sort gate) for `QVQLVESGGGLVQAGGSLRLSCAASGSTFPRYAMGWYRQAPGKERELVASITSDGGSTYYADSVKGRFTISRDNAMNTVYLQLNSLKPEDTAVYYCNKVTYRGYRRYGYWGQGTQVTVSS`
high polyreactivity
